Tested on: mice
Experiment: Contraceptive activity in mice, single application on 1st day of gestation
Format: in vivo, mouse
Conditions: mice, 10 mg/kg p.o., single application
Output TRUE for THE, % after single application of 10 mg/kg of body-wt. on the 1st day of gestation p.o. not less than 80%; output FALSE otherwise.

smiles_entry=COc1ccc2c(c1)CC[C@@H]1[C@@H]2CC[C@]2(C)[C@@H](O)C[C@@H]3C[C@]312 class=TRUE
smiles_entry=COc1ccc2c(c1)CC[C@@H]1[C@@H]2CC[C@]2(C)[C@H](O)C[C@@H]3C[C@]312 class=FALSE
smiles_entry=COc1ccc2c(c1)CC[C@@H]1[C@@H]2CC[C@]2(C)[C@H](O)C[C@H]3C[C@@]312 class=FALSE

====

System: inseminated rats
Assay: Antinidation / Nidation Inhibition Test in inseminated rats treated on the 1st day of gestation
Type: in vivo, rat
Details: Rattus norvegicus, po; probit analysis; STS 593 from trial No. 2; read-out: ED 50 for GHE1
ASSAY METRIC: ED50 (mg/kg)

molecule="C#C[C@]1(O)CC[C@H]2[C@@H]3CCc4cc(O)ccc4[C@H]3CC[C@@]21C [Ethynylestradiol, reference compound]" unit_spec=mg/kg result_comparator=≤ endpoint_value=0.45
molecule="COc1ccc2c(c1)CC[C@@H]1[C@@H]2CC[C@]2(C)[C@@H](O)C[C@H]3C[C@@]312 [STS 593]" unit_spec=mg/kg result_comparator== endpoint_value=0.474
molecule="C#C[C@]1(O)CC[C@H]2[C@@H]3CCc4cc(OC)ccc4[C@H]3CC[C@@]21C [Mestranol, reference compound]" unit_spec=mg/kg result_comparator== endpoint_value=0.34
molecule="COc1ccc2c(c1)CC[C@@H]1[C@@H]2CC[C@]2(C)[C@@H](O)C[C@@H]3C[C@]312 [STS 651]" unit_spec=mg/kg result_comparator== endpoint_value=0.183
